target: Estrogen receptor (Homo sapiens); assay: qHTS assay to identify small molecule agonists of the estrogen receptor alpha (ER-alpha) signaling pathway (AID 743075); conditions: HEK293 ER-alpha-UAS-bla, beta-lactamase FRET ratio, 18 h; series mostly up to 70.1 µM;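 further: HEK293 GripTite cells with ER-alpha and UAS-driven beta-lactamase reporter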
Results filed as inconclusive are left out. The source made the active and inactive calls. The call rests on the fitted dose curve.
Choose the fitting class; nothing outside 1.0 (active), 0.0 (inactive) is accepted.

compound: CN1CSC(=S)N(C)C1
classification: 0.0
--
compound: CC(C)C[C@H](CN)CC(=O)O
classification: 0.0
--
compound: COC(=O)[C@H]1[C@@H](OC(=O)c2ccccc2)C[C@@H]2CC[C@H]1N2C
classification: 0.0

**Query** Answer briefly: the call reported for S=C(S)N1CCNCC1 in this assay.
**Result** 0.0

**Query** Lab log entry: CC(C)=CCN1CC[C@]2(C)c3cc(O)ccc3C[C@H]1[C@H]2C — outcome as called in the assay?
**Result** 0.0

**Query** What classification did CCCSc1cc(OC)c(CCN)cc1OC end up with in this test?
**Result** 0.0

----------
test: qHTS assay to identify small molecule antagonists of the vitamin D receptor (VDR) signaling pathway - cell viability counter screen (AID 743225); conditions: VDR-bla HEK293T viability, CellTiter-Glo luminescence, 16 h; series mostly up to 61 µM; further: nearly all actives have a fitted effect of over 50% in size
Inconclusive results are not listed. The source made the active and inactive calls. The call rests on the fitted dose curve; in most records, active means well fitted cell-killing curve with a large enough effect in the repeat runs; inconclusive means weak or mixed curves, or effect the other way; inactive means no such curve, though single readings can be large or run the other way.
Just give me one of these, please: T for active, F for inactive

compound: CN1CSC(=S)N(C)C1
classification: F

**Query** Tell me the assay call for Clc1ccccc1-c1ccccc1Cl please.
**Result** F

**Query** # lookup: test call for OCC(c1ccc(Cl)cc1)c1ccc(Cl)cc1
**Result** T

**Query** Outcome logged for c1ccc2c(c1)Sc1ccccc1N2CC1CN2CCC1CC2 (centres undefined) in this assay:
**Result** T

----------
test: qHTS assay to identify small molecule antagonists of the sonic hedgehog signaling (Shh) pathway (AID 1259369); conditions: NIH/3T3 Gli1-Luc reporter, Shh antagonist, luminescence 24 h; series mostly up to 92.4 µM; further: nearly all actives have a fitted effect of over 45% in size
Records with an inconclusive call do not appear. Active and inactive are the calls of the source. Calls follow the shape of the full dose curve.
Hi! Could you answer with just one of these? True = active, False = inactive

Please review the entries below; each comes with its answer.
compound: ClC1=C(Cl)[C@]2(Cl)[C@@H]3[C@@H](Cl)[C@H]4O[C@H]4[C@@H]3C1(Cl)C2(Cl)Cl
classification: True

compound: OC(Cc1ccccc1Cl)(Cn1[nH]cnc1=S)C1(Cl)CC1 (centres undefined)
classification: True

compound: C[C@]12CC[C@@H](O)C[C@@H]1CC[C@@H]1[C@@H]2CC[C@]2(C)C(=O)CC[C@@H]12
classification: True

**Query** What did the test return for CC1COC(Cn2cncn2)(c2ccc(Oc3ccc(Cl)cc3)cc2Cl)O1 (centres undefined) ?
**Result** True

**Query** What call does the record list for c1ccc2c(c1)Sc1ccccc1N2CC1CN2CCC1CC2 (centres undefined) ?
**Result** True

**Query** Identify the outcome logged in this assay for the compound shown: CNC(=O)Oc1cc(C)c(SC)c(C)c1
**Result** True

**Query** Fill in: this test's call for Cc1nnc2n1-c1sc(CCc3ccc(CC(C)C)cc3)cc1C(c1ccccc1Cl)=NC2C (centres undefined) is ___
**Result** True

**Query** Could you please tell me the result logged for ClC(Cl)=C(c1ccc(Cl)cc1)c1ccccc1Cl in this assay?
**Result** False

**Query** For COc1ccc(C(c2ccc(OC)cc2)C(Cl)(Cl)Cl)cc1 , which call appears in the assay record?
**Result** True

Value source: PubChem BioAssay (Tox21)
